Source: patent US20230183352A1

Here the recorded EC50 is given for each entry.
- target_entity: T1, Claudin 18.2 (CLDN18.2), expressed on CHOS-CLDN 18.2 / HEK293-CLDN 18.2 / HCC827-CLDN 18.2 cells (human, UniProt P56856-2 1-261)
- T1 construct: whole, on cells; The species is not repeated for the CHOS-CLDN 18.2 cells; also called claudin-18A2
- protocol_description: FACS, CHOS-CLDN18.2 cells
quantity_name: EC50 (µg/mL)

• QP024025 (antibody, human IgG1, V domains shown, also called IMAB362; 175D10(IMAB362)) VH: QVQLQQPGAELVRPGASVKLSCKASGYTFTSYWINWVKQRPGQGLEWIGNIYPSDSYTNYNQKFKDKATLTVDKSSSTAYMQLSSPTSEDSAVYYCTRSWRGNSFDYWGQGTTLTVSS VL: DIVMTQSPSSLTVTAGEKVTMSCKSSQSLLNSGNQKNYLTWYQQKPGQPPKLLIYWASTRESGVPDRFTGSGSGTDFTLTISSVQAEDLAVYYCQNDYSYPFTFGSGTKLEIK = 0.27
• QP14651460 (antibody, human IgG1, kappa, V domains shown, Humanized from QP207208) VH: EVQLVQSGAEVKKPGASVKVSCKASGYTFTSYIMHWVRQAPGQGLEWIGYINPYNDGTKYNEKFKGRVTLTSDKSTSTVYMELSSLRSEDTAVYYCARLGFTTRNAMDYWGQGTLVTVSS VL: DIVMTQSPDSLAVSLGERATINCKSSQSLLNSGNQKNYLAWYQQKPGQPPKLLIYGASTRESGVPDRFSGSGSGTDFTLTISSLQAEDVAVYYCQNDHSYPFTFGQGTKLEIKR = 0.186
• QP14641461 (antibody, human IgG1, kappa, V domains shown, Humanized from QP207208) VH: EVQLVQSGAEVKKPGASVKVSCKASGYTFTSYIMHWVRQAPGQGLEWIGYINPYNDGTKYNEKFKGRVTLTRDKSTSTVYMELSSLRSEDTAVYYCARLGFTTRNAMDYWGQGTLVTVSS VL: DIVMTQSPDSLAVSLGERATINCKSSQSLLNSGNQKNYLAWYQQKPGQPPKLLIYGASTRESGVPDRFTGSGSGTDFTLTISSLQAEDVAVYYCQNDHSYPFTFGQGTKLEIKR = 0.165
• QP14641462 (antibody, human IgG1, kappa, V domains shown, Humanized from QP207208) VH: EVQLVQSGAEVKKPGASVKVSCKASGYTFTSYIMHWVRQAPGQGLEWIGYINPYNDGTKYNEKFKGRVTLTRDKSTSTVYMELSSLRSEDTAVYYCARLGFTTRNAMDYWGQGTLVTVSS VL: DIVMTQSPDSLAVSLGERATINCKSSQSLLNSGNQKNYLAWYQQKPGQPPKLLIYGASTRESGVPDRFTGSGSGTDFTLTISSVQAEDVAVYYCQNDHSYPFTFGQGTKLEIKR = 0.306
